- protocolDetails: Thermal stability of cysteine-NEM conjugates by DSC
- Assay type: physicochemical
- testParameters: DSC 25-100 °C, 1 °C per minute
readoutName: First Scan Tm (°C)
Expressed in °C, but write only the number.

Prompt line: What value of First Scan Tm has been recorded for this entry: Q34C: cysteine variant of P54AR4-83v2 (SEQ ID NOS: 197 and 235); NEM and VC-MMAF conjugates (conjugate, NEM or vcMMAF conjugate; EGFR binding FN3 domain, NEM and VC-MMAF conjugates) MLPAPKNLVVSEVTEDSARLSWDDPWAFYESFLICYQESEKVGEAIVLTVPGSERSYDLTGLKPGTEYTVSIYGVHNVYKDTNMRGLPLSAIFTT
Response line: 75

Prompt line: What value of First Scan Tm has been recorded for this entry: I45C: cysteine variant of P54AR4-83v2 (SEQ ID NOS: 201 and 239); NEM and VC-MMAF conjugates (conjugate, NEM or vcMMAF conjugate; EGFR binding FN3 domain, NEM and VC-MMAF conjugates) MLPAPKNLVVSEVTEDSARLSWDDPWAFYESFLIQYQESEKVGEACVLTVPGSERSYDLTGLKPGTEYTVSIYGVHNVYKDTNMRGLPLSAIFTT
Response line: 69

Prompt line: What value of First Scan Tm has been recorded for this entry: E39C (conjugate, left off: small tags and cut ends) LPAPKNLVVSEVTEDSARLSWDDPWAFYESFLIQYQESCKVGEAIVLTVPGSERSYDLTGLKPGTEYTVSIYGVHNVYKDTNMRGLPLSAIFTT
Response line: 67

Prompt line: What value of First Scan Tm has been recorded for this entry: E53C: cysteine variant of P54AR4-83v2 (SEQ ID NOS: 204 and 242); NEM and VC-MMAF conjugates (conjugate, NEM or vcMMAF conjugate; EGFR binding FN3 domain, NEM and VC-MMAF conjugates) MLPAPKNLVVSEVTEDSARLSWDDPWAFYESFLIQYQESEKVGEAIVLTVPGSCRSYDLTGLKPGTEYTVSIYGVHNVYKDTNMRGLPLSAIFTT
Response line: 76

Prompt line: What value of First Scan Tm has been recorded for this entry: G42C (conjugate, left off: small tags and cut ends) LPAPKNLVVSEVTEDSARLSWDDPWAFYESFLIQYQESEKVCEAIVLTVPGSERSYDLTGLKPGTEYTVSIYGVHNVYKDTNMRGLPLSAIFTT
Response line: 65

Prompt line: What value of First Scan Tm has been recorded for this entry: S30C: cysteine variant of P54AR4-83v2 (SEQ ID NOS: 196 and 234); NEM and VC-MMAF conjugates (conjugate, NEM or vcMMAF conjugate; EGFR binding FN3 domain, NEM and VC-MMAF conjugates) MLPAPKNLVVSEVTEDSARLSWDDPWAFYECFLIQYQESEKVGEAIVLTVPGSERSYDLTGLKPGTEYTVSIYGVHNVYKDTNMRGLPLSAIFTT
Response line: 71

Prompt line: What value of First Scan Tm has been recorded for this entry: I91C: cysteine variant of P54AR4-83v2 (SEQ ID NOS: 215 and 253); NEM and VC-MMAF conjugates (conjugate, NEM or vcMMAF conjugate; EGFR binding FN3 domain, NEM and VC-MMAF conjugates) MLPAPKNLVVSEVTEDSARLSWDDPWAFYESFLIQYQESEKVGEAIVLTVPGSERSYDLTGLKPGTEYTVSIYGVHNVYKDTNMRGLPLSACFTT
Response line: 70

Prompt line: What value of First Scan Tm has been recorded for this entry: R54C: cysteine variant of P54AR4-83v2 (SEQ ID NOS: 205 and 243); NEM and VC-MMAF conjugates (conjugate, NEM or vcMMAF conjugate; EGFR binding FN3 domain, NEM and VC-MMAF conjugates) MLPAPKNLVVSEVTEDSARLSWDDPWAFYESFLIQYQESEKVGEAIVLTVPGSECSYDLTGLKPGTEYTVSIYGVHNVYKDTNMRGLPLSAIFTT
Response line: 65

Prompt line: What value of First Scan Tm has been recorded for this entry: T48C: cysteine variant of P54AR4-83v2 (SEQ ID NOS: 203 and 241); NEM and VC-MMAF conjugates (conjugate, NEM or vcMMAF conjugate; EGFR binding FN3 domain, NEM and VC-MMAF conjugates) MLPAPKNLVVSEVTEDSARLSWDDPWAFYESFLIQYQESEKVGEAIVLCVPGSERSYDLTGLKPGTEYTVSIYGVHNVYKDTNMRGLPLSAIFTT
Response line: 72

Prompt line: What value of First Scan Tm has been recorded for this entry: A90C: cysteine variant of P54AR4-83v2 (SEQ ID NOS: 214 and 252); NEM and VC-MMAF conjugates (conjugate, NEM or vcMMAF conjugate; EGFR binding FN3 domain, NEM and VC-MMAF conjugates) MLPAPKNLVVSEVTEDSARLSWDDPWAFYESFLIQYQESEKVGEAIVLTVPGSERSYDLTGLKPGTEYTVSIYGVHNVYKDTNMRGLPLSCIFTT
Response line: 67

Prompt line: What value of First Scan Tm has been recorded for this entry: S20C: cysteine variant of P54AR4-83v2 (SEQ ID NOS: 195 and 233); NEM and VC-MMAF conjugates (conjugate, NEM or vcMMAF conjugate; EGFR binding FN3 domain, NEM and VC-MMAF conjugates) MLPAPKNLVVSEVTEDSARLCWDDPWAFYESFLIQYQESEKVGEAIVLTVPGSERSYDLTGLKPGTEYTVSIYGVHNVYKDTNMRGLPLSAIFTT
Response line: 70

Where these numbers come from: patent US11702475B2
